# TARGET SYSTEM: ULK1 (human)
# PROTOCOL NOTES: KINOMEscan competition binding
# MEASUREMENT CONTEXT: compound 1.0 µM
The entries below are paired with their reported kinase still bound, per cent of control.
Please state the figure in %; there is no need to write the unit.

The examples below pair each entry with its known result.
[[record]]
structure_notation = "CN(C)C/C=C/C(=O)Nc1cccc(C(=O)Nc2ccc(Nc3nccc(/C(C#N)=C4\\Nc5ccccc5S4)n3)cc2)c1"
experimental_endpoint = "kinase still bound, per cent of control"
measured_number = 92

[[record]]
structure_notation = "CN(C)C/C=C/C(=O)Nc1cccc(C(=O)Nc2ccc(Nc3nccc(-c4c(-c5ccccc5)nn5ccccc45)n3)cc2)c1"
experimental_endpoint = "kinase still bound, per cent of control"
measured_number = 87

[[record]]
structure_notation = "Cc1cc(NC(=O)c2cccc(NC(=O)/C=C/CN(C)C)c2)ccc1Nc1nccc(-c2cccnc2)n1"
experimental_endpoint = "kinase still bound, per cent of control"
measured_number = 100


kinase still bound, per cent of control reported for this compound CN(C)C/C=C/C(=O)Nc1cccc(C(=O)Nc2ccc(Nc3nccc(-c4cccnc4)n3)cc2)c1 : 100

Taken from the kinase profiling compilation of Christmann-Franck et al. (2016).
